Where these numbers come from: paper PMC9911399

# tested on: T1, RBFOX1 RRM (Homo sapiens, UniProt Q9NWB1 109-208)
# T1 sequence: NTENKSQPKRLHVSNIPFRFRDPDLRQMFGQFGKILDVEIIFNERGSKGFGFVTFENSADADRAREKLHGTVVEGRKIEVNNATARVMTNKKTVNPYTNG
# assay procedure: EMSA; HiTS-Eq, 1 nM pool, 10 min; buffer printed only for the single-RNA assays: 10 mM Tris pH 7.5, 150 mM NaCl, 3.4 mM EDTA, 0.001% NP-40, 30 C
# assay conditions: tags: His6 N-terminal (pET28a); label: 5' 32P
In all, about 16,000 sequences were measured (“ka relative to ugcaugu”: median about 0.0091, highest 2% from about 0.032 on). The sample as a whole holds a higher share of the highest values than the screen did.
endpoint name: binding signal

Recorded binding signal, per entry:
>>> value_measured("UGCGUGU (DNA:RNA) RNA: GGGAGACCGGAAUUCAGAUUGUCCUGCGUGUUUAAAUCCCGUCGUAGCCACCA DNA 1: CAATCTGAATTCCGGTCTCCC DNA 2: TGGTGGCTACGACGGGATT")
"0.0418 KA relative to UGCAUGU"
>>> value_measured("UGCUGCG (DNA:RNA) RNA: GGGAGACCGGAAUUCAGAUUGUCCUGCUGCGUUAAAUCCCGUCGUAGCCACCA DNA 1: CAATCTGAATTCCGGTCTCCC DNA 2: TGGTGGCTACGACGGGATT")
"0.0333 KA relative to UGCAUGU"
>>> value_measured("UGCGUUU (DNA:RNA) RNA: GGGAGACCGGAAUUCAGAUUGUCCUGCGUUUUUAAAUCCCGUCGUAGCCACCA DNA 1: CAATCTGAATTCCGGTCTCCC DNA 2: TGGTGGCTACGACGGGATT")
"0.0236 KA relative to UGCAUGU"

// switching to the query binder
Q) Dear colleague, please send me the reported binding signal for UUCGUGC (DNA:RNA) RNA: GGGAGACCGGAAUUCAGAUUGUCCUUCGUGCUUAAAUCCCGUCGUAGCCACCA DNA 1: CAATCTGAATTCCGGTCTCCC DNA 2: TGGTGGCTACGACGGGATT when you can.
A) 0.0243 KA relative to UGCAUGU
